Target Under Test: DRB1*0101 (Homo sapiens, UniProt P01903+P01911, A100R/D57E/F55L/F60I/F76Y/I96L/L162R/M171V/P40L/Q125E/R42F/V115G/Y59C)
Construct: made in house; host or cells: EBV-transformed homozygous human B cell lines, transfected fibroblasts or single-allele 721.221 transfectants
Test Method Notes: biochemical
Format: binding
Test Conditions: IC50 nM to purified HLA DRB1*0101
Where no end group is shown, it is not given here.
In this section we review reported IC50 values for a set of sequences.
Please reply with the bare figure in nM and do not write the unit itself.

Known IC50 results, listed for orientation:
[
  {
    "Sequence Data": "MEWLKTRPILSPLTK [Flu.M1.46]",
    "Measurement Units": "nM",
    "Readout Number": 52
  },
  {
    "Sequence Data": "LILYDKEEIRRIWRQ [Flu.NP.111]",
    "Measurement Units": "nM",
    "Readout Number": 7180
  },
  {
    "Sequence Data": "ALQLLFEVEQEIRTF [Flu.NS2.178]",
    "Measurement Units": "nM",
    "Readout Number": 3490
  },
  {
    "Sequence Data": "MVAYMLERELVRKTR [Flu.PB2.205]",
    "Measurement Units": "nM",
    "Readout Number": 97
  }
]

IC50 for TRPILSPLTKGILGF [Flu.M1.51] is 423

IC50 for PVHFRNQVKIRRRVD [Flu.PB2.135] is 2970
